Hello, the source for this data is patent US20230054407A1, in case you need it.

Experiment Description: In vitro fluorescence emission spectra and compatibility of nucleic acid and protein/cytoplasm dyes
Type: physicochemical
Property: Approximate peak fluorescence

Assign Approximate peak fluorescence to the following record: CN(C)c1ccc2nc3ccc(=[N+](C)C)cc-3sc2c1 [Methylene Blue] ~695 nm

Identify Approximate peak fluorescence associated with the molecule O=C([O-])c1c(Cl)c(Cl)c(Cl)c(Cl)c1-c1c2cc(I)c(=O)c(I)c-2oc2c(I)c([O-])c(I)cc12.[Na+].[Na+] [Rose Bengal] ~565 nm

// Input: O=C1c2c(O)ccc(O)c2C(=O)c2c(NCCNCCO)ccc(NCCNCCO)c21 [Mitoxantrone] . Output its Approximate peak fluorescence only. ~685 nm

Give a short answer stating reported Approximate peak fluorescence for Nc1c(/N=N/c2ccc(-c3ccc(/N=N/c4cc(S(=O)(=O)O)c5ccccc5c4N)cc3)cc2)cc(S(=O)(=O)O)c2ccccc12 [Congo Red] . ~425 nm

Query Approximate peak fluorescence for Nc1ccc2cc3ccc(N)cc3nc2c1 [Proflavine] ~508 nm

Query Approximate peak fluorescence for O=C([O-])c1c(Cl)c(Cl)c(Cl)c(Cl)c1-c1c2cc(Br)c(=O)c(Br)c-2oc2c(Br)c([O-])c(Br)cc12.[Na+].[Na+] [Phloxine B] ~550 nm
